The measurements presented in this section are drawn from ChEMBL document CHEMBL4689842.

// Growth Rate lookup, one value per entry
# Tested on: Fibroblast
# assay.protocol: Incucyte cell viability with human fibroblast; also: filed as whole numbers so only -1 and 0 and 1 occur
# Format: toxicity, cell-based
# experimental.parameters: 18 h, 10 µM, compound concentration 10 uM, replicate number 2, timepoint 18 hours
The reply should be a number, written without any unit.

- molecule: "C[C@H](NC(=O)Nc1cc2[nH]ncc2c(CO)n1)c1ccccn1"
  endpoint.label: "Growth Rate"
  value.observed: 0

# Growth Rate of CCN1CCC[C@H]1CNC(=O)c1c(OC)ccc(Br)c1OC [REMOXIPRIDE] = 0

Notebook: "N#Cc1cccc(C(=O)Nc2cc(-c3ccccc3)nn2-c2ccccc2)c1" , Growth Rate read as 1

// Growth Rate lookup, molecule = "O=C(N1CCS(=O)(=O)CC1)N1C[C@H](c2ccc(OC(F)(F)F)cc2)C[C@H](c2nc(C3CC3)no2)C1" , result: 0

Consider "Cn1cc(Cl)c2c(Oc3c(F)cc(Nc4cc(Cl)nc(N)n4)cc3F)ccnc21" . Its measured Growth Rate is 1

Consider CC(C)(Cc1ccccc1)NCC(O)c1ccc(O)c(NS(C)(=O)=O)c1.Cl (centres undefined) [ZINTEROL HYDROCHLORIDE] . Its measured Growth Rate is 1
